Each entry below carries its reported log10 of Kd.
- Subject Of Test: T1, recombinant human sc-uPA (human, UniProt P00749 21-431)
- T1 construct: 411 amino acid single-chain zymogen expressed in HEK293; the 20-residue signal peptide is not present in the mature protein; also called human single-chain uPA; pro-uPA
- Experiment: SPR, mAb immobilised
Friendly reminder: values = log10 of Kd, unit nM.

Provide only the value of recorded log10 of Kd for rec0266-0000-0010-VL_N90F (antibody, mouse IgG1, name in Kabat numbering, V domains shown) VH: DVKLVESGGGLVKPGGSLKLSCVASGFTFSSYTMSWVRQTPEKRLEWVATISGGGSHIYYADSVKGRFTISRDNAKNTLYLQMSSLKSEDTAIYYCTRDGRDGSWFAYWGQGTLVTVSA VL: DIVMTQSPATLSVTPGDRVSLSCRTSQSIGDYLHWYQQKSHESPRLLIKYVSQSISGIPSRFSGSGSGSDFTLSINSVESEDVGVYYCQFSHSFPLTFGSGTKLELKR
-0.10
